System: HCT116 (human colon carcinoma) cells
Experiment: HCT116 cytotoxicity assay (CellTiter-Glo)
Type: cell-based
Details: HCT-116, 72 h, cytotoxicity, three days culture, read-out: HCT116 IC50
Protocol: […] Log-phase cells were trypsinized, collected by centrifugation, and resuspended in a small volume of fresh medium, and the density of viable cells was determined following Trypan Blue staining. […] After incubation for 15 minutes at room temperature, the plate was read with a luminometer.
Entries and their measured pIC50 follow.
In textbook form, pIC50 equals minus log to base ten of the concentration in mol/L.

{"compound": "Cn1ccnc1CCc1ccc2c(c1)S/C(=C(/C(N)=O)c1nccc(C(F)(F)F)n1)N2 [Compound 97A]", "pIC50": 6.22}

(Q) Requested read-out: pIC50. Entry: NC(=O)/C(=C1\Nc2ccc(N3CCC(N)C3)cc2S1)c1nccc(C(F)(F)F)n1 (stereo not shown) [Compound 123A]
(A) 5.40

(Q) Need pIC50, item NC(=O)/C(=C1\Nc2ccc(NC(=O)[C@H]3CCCN3)cc2N1)c1nccc(C(F)(F)F)n1 [Compound 79A]
(A) 7.00

(Q) Item under review: CCN(CCCn1ccnc1)C(=O)c1ccc2c(c1)S/C(=C(/C(N)=O)c1nccc(C(F)(F)F)n1)N2 [Compound 49A] . Reported pIC50?
(A) 6.40

(Q) What measured pIC50 goes with CN1CCN(c2ccc3c(c2)S/C(=C(/C(N)=O)c2nccc(C(F)(F)F)n2)N3)CC1 [Compound 120A] ?
(A) 5.70

(Q) What does the record list as pIC50 for NC(=O)/C(=C1\Nc2ccc(CCN3CCS(=O)(=O)CC3)cc2S1)c1nccc(C(F)(F)F)n1 [Compound 100A] ?
(A) 6.40

(Q) Look up pIC50: NC(=O)C(=C1Nc2ccc([N+](=O)[O-])cc2S1)c1nccc(C(F)(F)F)n1 (single isomer, unassigned) [Compound 26A]
(A) 4.70

----------
Measured pIC50 by item
system: HCT116 (human colon carcinoma) cells; experiment: HCT116 cytotoxicity assay (CellTiter-Glo); format: cell-based; details: HCT-116, 72 h, cytotoxicity, three days culture, read-out: HCT116 IC50
pIC50 (log units): -log10 of the concentration in mol/L.

{"compound": "NC(=O)/C(=C1/Nc2cc(F)cc(F)c2N1)c1nccc(C(F)(F)F)n1 [Compound 36A]", "pIC50": 5.40}
{"compound": "NC(=O)C(=C1Nc2ccccc2S1)c1ncc(C(=O)O)c(C(F)(F)F)n1 (single isomer, unassigned)", "pIC50": 5.00}
{"compound": "CCN(CCCN1CCOCC1)C(=O)c1ccc2c(c1)S/C(=C(/C(N)=O)c1nccc(C(F)(F)F)n1)N2 [Compound 42A]", "pIC50": 6.30}

(Q) I would be grateful if you could share the reported pIC50 for COC(=O)c1ccc2c(c1)N/C(=C(/C(N)=O)c1nccc(C(F)(F)F)n1)N2 [Compound 29A] .
(A) 6.70

----------
For reference, IC50 measured on VEGFR2 kinase (Homo sapiens, UniProt P35968):
Hi! Could you send only the number? It should be in nM, unit omitted.

Here's what some known entries look like.
{"compound": "Cc1cc2c(cc1C)NC(=C(C(N)=O)c1ncc(C(=O)NCCN3CCOCC3)c(C(F)(F)F)n1)N2 [Compound 136A]", "target-or-system": "VEGFR2 kinase (Homo sapiens, UniProt P35968)", "units-text": "nM", "IC50": 30}
{"compound": "NC(=O)/C(=C1\\Nc2ccc(NC(=O)CCN3CCOCC3)cc2N1)c1nccc(C(F)(F)F)n1 [Compound 84A]", "target-or-system": "VEGFR2 kinase (Homo sapiens, UniProt P35968)", "units-text": "nM", "IC50": 20}
{"compound": "NC(=O)/C(=C1\\Nc2ccc(Cn3ccnc3)cc2S1)c1nccc(C(F)(F)F)n1 [Compound 89A]", "target-or-system": "VEGFR2 kinase (Homo sapiens, UniProt P35968)", "units-text": "nM", "IC50": 6}
{"compound": "NC(=O)/C(=C1\\Nc2cc(OCCN3CCOCC3)ccc2S1)c1nccc(C(F)(F)F)n1 [Compound 112A]", "target-or-system": "VEGFR2 kinase (Homo sapiens, UniProt P35968)", "units-text": "nM", "IC50": 200}
{"compound": "Cc1cc2c(cc1C)NC(=C(C(N)=O)c1ncc(C(=O)NCCCN3CCOCC3)c(C(F)(F)F)n1)N2 [Compound 133A]", "target-or-system": "VEGFR2 kinase (Homo sapiens, UniProt P35968)", "units-text": "nM", "IC50": 60}
{"compound": "CN1CCN(CCCOc2ccc3c(c2)S/C(=C(/C(N)=O)c2nccc(C(F)(F)F)n2)N3)CC1 [Compound 115A]", "target-or-system": "VEGFR2 kinase (Homo sapiens, UniProt P35968)", "units-text": "nM", "IC50": 20}

(Q) Requested read-out: IC50. Entry: NC(=O)/C(=C1\Nc2ccc(-c3cccnc3)cc2S1)c1nccc(C(F)(F)F)n1 [Compound 108A]
(A) 60

(Q) // IC50 lookup, key: CN(C)CCCNC(=O)c1ccc2c(c1)N/C(=C(/C(N)=O)c1nccc(C(F)(F)F)n1)N2 [Compound 62A]
(A) 6

----------
# log10 IC50 per entry for VEGFR2 kinase (Homo sapiens)
All values: log10 IC50 [nM].

Study these solved cases before continuing.
{"compound": "NC(=O)C(=C1Nc2ccccc2N1)c1ncc(C(=O)NCCCN2CCOCC2)c(C(F)(F)F)n1 [Compound 132A]", "log10 IC50": 2.00}
{"compound": "NC(=O)/C(=C1\\Nc2cccc(C(=O)NCCCN3CCOCC3)c2S1)c1nccc(C(F)(F)F)n1 [Compound 52A]", "log10 IC50": 2.00}
{"compound": "NC(=O)/C(=C1\\Nc2ccc(C(=O)N3CC[C@@H](N)C3)cc2S1)c1nccc(C(F)(F)F)n1 [Compound 69A]", "log10 IC50": 0.30}
{"compound": "NC(=O)C(=C1Nc2ccc(C(=O)NCCCN3CCOCC3)cc2N1)c1nccc(C(F)(F)F)n1 (single isomer, unassigned) [Compound 39A]", "log10 IC50": 0.85}
{"compound": "CN1CCN(CCNC(=O)c2ccc3c(c2)S/C(=C(/C(N)=O)c2nccc(C(F)(F)F)n2)N3)CC1 [Compound 57A]", "log10 IC50": 1.00}

(Q) State its log10 IC50 on VEGFR2 kinase (Homo sapiens): NC(=O)C(=C1Nc2ccccc2N1)c1nc(N)cc(C(F)(F)F)n1 [Compound 12A]
Sequence (P35968 20-1356): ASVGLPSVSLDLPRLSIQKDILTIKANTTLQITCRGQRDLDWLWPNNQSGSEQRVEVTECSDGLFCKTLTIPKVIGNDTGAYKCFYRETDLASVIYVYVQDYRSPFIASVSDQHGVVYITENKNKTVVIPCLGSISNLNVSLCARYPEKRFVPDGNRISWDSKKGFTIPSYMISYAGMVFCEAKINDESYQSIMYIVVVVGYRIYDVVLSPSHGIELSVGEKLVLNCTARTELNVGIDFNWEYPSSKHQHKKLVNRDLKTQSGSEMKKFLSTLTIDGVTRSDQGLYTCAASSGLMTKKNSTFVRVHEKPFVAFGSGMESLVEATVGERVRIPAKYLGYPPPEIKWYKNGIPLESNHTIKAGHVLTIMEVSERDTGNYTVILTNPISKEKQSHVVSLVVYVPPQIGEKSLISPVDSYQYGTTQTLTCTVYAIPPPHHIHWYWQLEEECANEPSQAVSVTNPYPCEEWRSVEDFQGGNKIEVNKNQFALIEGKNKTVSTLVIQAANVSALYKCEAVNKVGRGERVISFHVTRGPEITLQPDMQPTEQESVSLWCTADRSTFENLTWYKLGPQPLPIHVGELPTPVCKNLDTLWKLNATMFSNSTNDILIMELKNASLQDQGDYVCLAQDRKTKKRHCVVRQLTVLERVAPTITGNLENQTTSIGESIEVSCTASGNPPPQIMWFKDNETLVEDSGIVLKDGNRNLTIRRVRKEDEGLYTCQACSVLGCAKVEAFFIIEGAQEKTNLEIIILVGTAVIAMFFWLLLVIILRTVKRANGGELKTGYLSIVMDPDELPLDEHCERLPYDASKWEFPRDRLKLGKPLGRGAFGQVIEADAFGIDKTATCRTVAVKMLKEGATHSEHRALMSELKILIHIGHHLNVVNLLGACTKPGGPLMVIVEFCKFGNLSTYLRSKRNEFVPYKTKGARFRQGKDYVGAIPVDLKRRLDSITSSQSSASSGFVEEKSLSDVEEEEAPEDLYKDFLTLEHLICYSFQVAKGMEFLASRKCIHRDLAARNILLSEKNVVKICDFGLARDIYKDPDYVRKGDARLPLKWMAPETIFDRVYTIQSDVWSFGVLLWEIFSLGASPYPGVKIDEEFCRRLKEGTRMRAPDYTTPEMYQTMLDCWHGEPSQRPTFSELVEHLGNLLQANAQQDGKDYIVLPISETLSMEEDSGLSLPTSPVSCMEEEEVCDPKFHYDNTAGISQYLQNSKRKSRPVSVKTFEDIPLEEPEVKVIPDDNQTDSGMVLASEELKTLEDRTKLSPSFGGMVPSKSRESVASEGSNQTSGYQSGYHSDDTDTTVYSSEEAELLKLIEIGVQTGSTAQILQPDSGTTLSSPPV
(A) 1.60

(Q) Give VEGFR2 kinase (Homo sapiens) log10 IC50 for NC(=O)/C(=C1\Nc2cc(F)c(Cl)cc2N1)c1nccc(C(F)(F)F)n1 [Compound 37A]
(A) 2.60

(Q) Form: Entry = NCC(=O)Nc1ccc2c(c1)SC(=C(C(N)=O)c1nccc(C(F)(F)F)n1)N2 (single isomer, unassigned) [Compound 76A] | System = VEGFR2 kinase (Homo sapiens) | log10 IC50 = ____
(A) 1.90

(Q) Look up log10 IC50 with VEGFR2 kinase (Homo sapiens) for this compound: CN(C)CCOc1ccc2c(c1)S/C(=C(/C(N)=O)c1nccc(C(F)(F)F)n1)N2 [Compound 116A]
(A) 0.95

(Q) Lookup: log10 IC50 / VEGFR2 kinase (Homo sapiens) / NC(=O)/C(=C1\Nc2ccc(CCN3CCSCC3)cc2S1)c1nccc(C(F)(F)F)n1 [Compound 103A]
(A) 1.30

(Q) Observed log10 IC50 on VEGFR2 kinase (Homo sapiens) for NC(=O)/C(=C1\Nc2ccccc2S1)c1nc(NCCN2CCOCC2)cc(C(F)(F)F)n1 [Compound 137A] , please.
(A) 1.60

(Q) State its log10 IC50 on VEGFR2 kinase (Homo sapiens): NC(=O)/C(=C1\Nc2ccc(C(=O)Nc3ccc(CN4CCOCC4)cc3)cc2N1)c1nccc(C(F)(F)F)n1 [Compound 72A]
(A) 1.30

----------
Target sequence: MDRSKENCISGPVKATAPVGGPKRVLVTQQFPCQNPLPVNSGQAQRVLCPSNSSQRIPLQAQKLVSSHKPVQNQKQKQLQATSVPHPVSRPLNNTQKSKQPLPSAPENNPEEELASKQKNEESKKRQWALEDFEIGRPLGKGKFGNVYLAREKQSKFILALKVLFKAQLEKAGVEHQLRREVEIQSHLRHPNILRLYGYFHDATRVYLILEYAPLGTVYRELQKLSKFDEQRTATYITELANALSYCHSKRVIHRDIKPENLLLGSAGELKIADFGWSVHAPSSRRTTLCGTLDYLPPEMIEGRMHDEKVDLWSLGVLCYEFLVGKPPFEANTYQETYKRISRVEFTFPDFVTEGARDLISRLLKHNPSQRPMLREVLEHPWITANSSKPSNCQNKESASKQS
# IC50 per entry
Your answer should be a plain number; it is taken to be in nM.

{"compound": "NC(=O)/C(=C1\\Nc2ccc(C(=O)N(CCO)CCO)cc2N1)c1nccc(C(F)(F)F)n1 [Compound 30A]", "test-readout": "IC50", "units-text": "nM", "measured": 10}

(Q) I have this compound here, NC(=O)/C(=C1\Nc2ccc(C(=O)NCCn3ccnc3)cc2S1)c1nccc(C(F)(F)F)n1 [Compound 47A] , and I need its recorded IC50.
(A) 4

(Q) What IC50 value was documented for this compound, CN1CCN(c2ccc3c(c2)S/C(=C(/C(N)=O)c2nccc(C(F)(F)F)n2)N3)CC1 [Compound 120A] ?
(A) 30

(Q) # input compound: COc1ccnc(/C(C(N)=O)=C2/Nc3ccccc3S2)n1 [Compound 16A] ; wanted: its IC50
(A) 100

(Q) Name the reported IC50 value associated with the compound NC(=O)C(=C1Nc2ccccc2N1)c1nc(N)cc(C(F)(F)F)n1 [Compound 12A]
(A) 7

(Q) What does the data say about its IC50? Entry: NC(=O)/C(=C1\Nc2ccc(I)cc2S1)c1nccc(C(F)(F)F)n1 [Compound 25A]
(A) 200

(Q) Using the record for NC(=O)/C(=C1\Nc2ccc(C(=O)N3CCC(N)CC3)cc2S1)c1nccc(C(F)(F)F)n1 [Compound 67A] , report its IC50.
(A) 10

(Q) Reported IC50 for CCN(C(=O)CN1CCCCC1)c1ccc2c(c1)N/C(=C(/C(N)=O)c1nccc(C(F)(F)F)n1)N2 [Compound 146A] : what is it?
(A) 20

(Q) Given the entry NC(=O)/C(=C1\Nc2ccc(C(=O)Nc3ccc(CN4CCOCC4)cc3)cc2N1)c1nccc(C(F)(F)F)n1 [Compound 72A] , report its measured IC50.
(A) 20

(Q) # get_value(readout='IC50', item= NC(=O)/C(=C1\Nc2ccc(NC(=O)Cn3ccnc3)cc2N1)c1nccc(C(F)(F)F)n1 [Compound 86A] )
(A) 4

(Q) Tell me the measured IC50 of NC(=O)/C(=C1\Nc2ccc(NC(=O)CCn3ccnc3)cc2N1)c1nccc(C(F)(F)F)n1 [Compound 87A] , please.
(A) 8

(Q) Bench note: what IC50 did Cc1cc(C(=O)O)nc(/C(C(N)=O)=C2/Nc3ccccc3S2)n1 [Compound 24A] show?
(A) 900

(Q) Look at this compound and give its reported IC50. COc1ccnc(C(C(N)=O)=C2Nc3ccccc3N2)n1 [Compound 17A]
(A) 300

(Q) Field request: IC50 | item: CN1CCN(C(=O)c2ccc3c(c2)S/C(=C(/C(N)=O)c2nccc(C(F)(F)F)n2)N3)CC1 [Compound 59A]
(A) 8

(Q) // query IC50 value for entry NC(=O)/C(=C1\Nc2ccc(NC(=O)C3CC3)cc2N1)c1nccc(C(F)(F)F)n1 [Compound 33A]
(A) 2

(Q) Quick one: IC50 for NC(=O)/C(=C1\Nc2ccc(C(=O)NCCCn3ccnc3)cc2N1)c1nccc(C(F)(F)F)n1 [Compound 45A] ?
(A) 20
